assay.system: SARS-CoV-2 Main Protease (SARS-CoV-2) (UniProt P0DTD1)
details: 50.0 µM
Assignment: determine reported inhibition for the given compounds.
Numbers only, in %.

O=C(Cc1ccccc1OC1CCOC1)OCc1cnn[nH]1 (stereo not drawn) ... 0
O=C(Cc1cncnc1)Nc1cccc(CCCc2ccccc2)c1 ... 0
Cc1noc(CC(NC(=O)C(C)Cn2ccnc2)c2ccccc2)n1 (stereo not drawn) ... 0
O=C(CCl)N1CCOc2cccc(-c3cccnc3)c21 ... -5.89
Cc1cc(C(C)(C)C)ccc1OC[C@H](O)Cn1cnccc1=O (stereo in doubt) ... 0
COc1ccc(C2CC(c3cccs3)=NN2C(=O)CCl)cc1OC (stereo not drawn) ... 91.1
CCS(=O)(=O)N1CCC(C(=O)Nc2cc(Cl)ccc2O)CC1 ... 0
OC[C@H]1O[C@H]([S][Au])[C@H](O)[C@@H](O)[C@@H]1O (stereo in doubt) ... 83.1
C=CC(=O)NCC(=O)N(Cc1ccccc1)C[C@H](O)c1ccccc1 (stereo in doubt) ... 0
CC(C)(Cn1c(C2CCC(=O)N2)nnc1N1CCCC(C(N)=O)C1)c1ccccc1F (stereo not drawn) ... 29.4

For each of the compounds below, state inhibition.
1. O=C(CCl)N1CCN(C(c2ccccc2)C2CCOCC2)CC1 (stereo not drawn)
2. C=C1CC1C(=O)NC(C)c1ccc(S(=O)(=O)NC)cc1 (stereo not drawn)
3. CCc1ccccc1Nc1nc(N)nc(CSc2nnc3ccccn23)n1
4. CCOc1ccccc1OC1CCN(C(=O)c2cc(=O)[nH]c3cc(F)ccc23)C1 (stereo not drawn)
5. NS(=O)(=O)c1ccc(N2CCC(N3CCCCC3)CC2)cc1
6. O=C(Nc1ccccc1OC1CCN(Cc2ccccc2)CC1)C1CCN(C(=O)CCl)CC1

1: 84.8; 2: 0; 3: 3.37; 4: 0; 5: 0; 6: -1.57

Record inhibition for all entries; do not skip any.
1. C=CC(=O)N(c1ccc(C(C)(C)C)cc1)C(C(=O)Nc1ccc2c(c1)OCCO2)c1cccnc1 (stereo not drawn)
2. COC1(CC(=O)Nc2cnccc2C)CC1
3. O=C(Cn1nnc2ccccc21)N(Cc1ccsc1)c1ccc(-c2ccccc2)cc1
4. Cc1nnn(C)c1NC(=O)Cc1cccc(Cl)c1
5. O=C(c1cc2sccc2s1)N1CCOC(CN2CCOCC2)C1 (stereo not drawn)
6. CC(C(=O)Nc1cnccc1C)=C1CC1

1. 30.8
2. 0
3. 36.1
4. 5.47
5. 2.34
6. 0

Please indicate inhibition recorded for Cc1nn(C(C)C)c(C)c1CC(=O)Nc1nncn1C1CC1
5.29

====

details: 100.0 µM
endpoint.label: relative solubility at 100 uM
Answers are plain numbers.

Count: 8. Required value per item: relative solubility at 100 uM.
1. CN(C(=O)Cn1nnc2ccccc21)c1ccc(Oc2ccc(C(F)(F)F)cn2)cc1
2. O=S(=O)(NC1(Cc2ccccc2)CCOCC1)c1cccnc1
3. O=C(Cc1ccc2[nH]c(=O)[nH]c2c1)NC1(CNC(=O)c2cnc[nH]2)CC1
4. Cc1nnc(CNC(=O)C2CCOc3ccc(Cl)cc32)n1C1CC1 (centres undefined)
5. O=C(Cc1cccc(Cl)c1)Nc1cnns1
6. O=C(Cc1ccc2ccccc2c1)Nc1cc(C(F)(F)F)ccn1
7. C=CC(=O)N(c1ccc(C(C)(C)C)cc1)C(C(=O)Nc1ccc(OC)cc1C)c1cccnc1 (centres undefined)
8. O=C(CCl)N1CCN(C(c2ccccc2)C2CCOCC2)CC1 (centres undefined)

1: 0.87; 2: 1; 3: 1; 4: 1; 5: 0.99; 6: 0.38; 7: 0.57; 8: 0.99

Provide relative solubility at 100 uM for all items below, preserving their order.
1. Cc1ccc(NC(=O)Cc2cc3cccnc3[nH]2)s1
2. Cc1ccn(CC(=O)NCc2nccn2CCc2ccccc2)c(=O)c1
3. O=C(CCc1cnn[nH]1)NC(Cn1cccn1)c1ccccc1 (centres undefined)
4. Cc1ccncc1NC(=O)Nc1cncc(C#N)c1
5. CCOC(=O)c1nc(S(C)(=O)=O)ncc1Cl
6. O=C(Cc1cccc(Cl)c1)Nc1cnccn1

0.96
1
1
1
0.99
1

Here are 3 compounds. What values of relative solubility at 100 uM were reported for them?
1. CN(C)C/C=C/C(=O)Nc1c[nH]c2ccccc12
2. O=C(Cc1cccc(Cl)c1)Nn1cnnc1
3. C=CC(=O)N(c1ccc(C(C)(C)C)cc1)C(C(=O)Nc1ccccc1OC)c1cccnc1 (centres undefined)

1: 1; 2: 1; 3: 0.95

Hi there! I need relative solubility at 100 uM for each item below, if you can.
1. C=CC(=O)N(c1ccc(SC)cc1)C(C(=O)Nc1ccc(OC)cc1C)c1cccnc1 (centres undefined)
2. CC(NC(=O)c1ccccc1OC1CCCCC1)c1cnccn1 (centres undefined)
3. N#Cc1ccc(S(=O)(=O)N2CCN(C(=O)c3cc(=O)[nH]c4ccc(F)cc34)CC2)cc1
4. O=C(c1cc(=O)[nH]c2ccc(F)cc12)N1CCN(S(=O)(=O)c2ccccc2Cl)CC1
5. Cc1ccncc1CC(=O)Nc1cccc(Cl)c1
6. O=C(CCl)N1CCN(C(c2ccccc2)c2ccccc2)CC1

0.84
1
0.98
0.93
1
0.01

State its relative solubility at 100 uM: CC(=O)Nc1ccc(NCC(=O)Nc2cnccc2C)cc1
0.9

====

assay.system: SARS-CoV-2 Main Protease (SARS-CoV-2)
details: 50.0 µM
Assignment: determine reported inhibition for the given molecules.
Give bare numbers, in %.

// solved cases for inhibition follow
O=C(CCc1cnn[nH]1)NC(Cn1cccn1)c1ccccc1 (centres undefined) ... -1.11
COc1ccccc1OC1CCCN(C(=O)c2c(C)c(=O)[nH]c3ccccc23)C1 (centres undefined) ... -1.13
NS(=O)(=O)CCc1ccccc1CN1CCN(C(=O)CCl)CC1 ... 103

Give me inhibition for each of these molecules, listed below.
1. C=CC(=O)N(c1ccc(C(C)OC)cc1)C(C(=O)Nc1c(C)cccc1CC)c1cccnc1 (centres undefined)
2. O=C(Cc1cc(Cl)c2c(c1)OCCO2)Nc1cnccc1-c1ccccc1
3. CCOC(=O)[C@@H](CCc1ccccc1)N[C@H](C)C(=O)Nc1cccc(CN2CCCC2)c1 (stereo in doubt)
4. CCn1c(CSc2nc(C)c(C)n2CC2CCCO2)nc2cc(S(=O)(=O)N(C)C)ccc21 (centres undefined)
5. CC(Cl)C(=O)N1CCC(C(=O)N2CCCCC2)CC1 (centres undefined)
6. C=CC(=O)N(c1ccc(C(C)(C)CC)cc1)C(C(=O)Nc1ccc(Br)cc1)c1cccnc1 (centres undefined)
7. CC(=O)N1CCN(CC(=O)Nc2cccc(S(N)(=O)=O)c2)CC1

[3.94, -10.4, 1.33, -3.59, -27, 18.4, 2.63]

Quick request: inhibition for each listed item, please.
1. Cc1cccc(C)c1OCC(=O)NCCc1ccccc1
2. N#Cc1cccc(NC(=O)Nc2cncc(N)c2)c1
3. CO[C@H](C)C(=O)N(C)c1cnccc1C (stereo in doubt)
4. CN(CC1COc2ccccc2O1)C(=O)c1cc(=O)[nH]c2ccc(F)cc12 (centres undefined)
5. O=C(NCC1COc2ccccc2O1)c1cc(=O)[nH]c2ccc(F)cc12 (centres undefined)
6. O=C(NCc1cccnn1)Nc1cccc(-c2ncc3n2CCCC3)c1
7. C=CC(=O)N(c1ccc(C(C)(C)C)cc1)C(C(=O)Nc1ccc(F)cc1C)c1cccnc1 (centres undefined)

1. 7.25
2. 57.2
3. 4.99
4. 1.67
5. 18.6
6. -5.29
7. 13.9

Go through the list and state inhibition for each entry.
1. CC(=O)N1CCN(S(=O)(=O)c2ccsc2)CC1
2. O=C(Cc1cccc(Cl)c1)Nc1nncs1
3. CC1CC(C)CN(C(=O)c2ccccc2NC(=O)NCc2ccoc2)C1 (centres undefined)
4. Nc1ncncc1CNC(=O)Nc1ccccc1OCCn1ccnc1

-20.6
-3.05
8.34
15.8

Items follow; give inhibition for each.
1. CS(=O)(=O)N1CCN(C(=O)CCl)CC1c1ccccc1 (centres undefined)
2. CNC(=O)OC1CCN(S(=O)(=O)c2ccccc2)CC1
3. O=C(Cc1c[nH]c2ncccc12)NCc1cccc(Cl)c1
4. CC(=O)N1CCN(Cc2cn(-c3cccc(S(N)(=O)=O)c3)nn2)CC1
5. CN(C)c1ccc(N(Cc2ccsc2)C(=O)Cn2nnc3ccccc32)cc1
6. Cc1nnn(NC(=O)Cc2cccc(Cl)c2)c1C

1: 69.5; 2: -16.3; 3: 9.03; 4: 1.36; 5: 90.5; 6: 70.4

I need inhibition for every entry listed below, if you could help.
1. Cc1ccccc1CN1CCN(C(=O)C(F)C(C)C)CC1 (centres undefined)
2. CC(C)Cn1cc(NC(=O)NCCc2c[nH]c3ccccc23)c2ccccc2c1=O
3. CC(CCc1ccco1)NC(=O)Nc1cn(C)c(=O)c2ccccc12 (centres undefined)

1: 6.7; 2: 6.69; 3: 67.9

Batch: inhibition for all items listed.
1. C=CC(=O)N(c1ccc(C(C)(C)CC)cc1)C(C(=O)Nc1cccc(F)c1C)c1cccnc1 (centres undefined)
2. O=S(=O)(Cc1nc(-c2ccncc2)no1)Nc1ccc(N2CCCCC2)cc1
3. O=C(O)[C@@H](Cc1nc(=O)cc[nH]1)NCc1ccc(Cl)s1 (stereo in doubt)
4. O=C(NCc1cnccn1)c1sc2cccc(F)c2c1COc1ccccc1
5. CCOC(=O)[C@H]1O[C@@H]1C(=O)N[C@@H](CC(C)C)C(=O)NCCC(C)C (stereo in doubt)
6. CS(=O)(=O)c1ncc(Cl)c(C(=O)Nc2ccccc2Cc2ccccc2)n1
7. Cc1ncncc1NC(=O)Nc1ccccc1
8. Cc1nnc(C2Cc3ccccc3CN2C(=O)CCl)o1 (centres undefined)

1. 31.8
2. 2.66
3. 4.85
4. 6.32
5. -5.21
6. 94.7
7. -0.628
8. 41.9

Please state inhibition for every molecule in the list that follows.
1. N#CC(C(=O)Nc1ccccc1)C(=O)c1cccc(Cl)c1 (centres undefined)
2. C=CC(=O)Nc1cc(C(=O)NC[C@H](Cc2ccccc2)c2ccccn2)ccc1O (stereo in doubt)
3. O=C(CCl)N1CCC(C(=O)N2CCCCC2)CC1

44
9.48
31.4

State recorded inhibition for all listed molecules.
1. Cc1ccc(S(=O)(=O)N2CCN(C(=O)c3cc(=O)[nH]c4ccc(F)cc34)CC2)c(C)c1
2. COc1ccc(NC(=O)Nc2cn(C)c(=O)c3ccccc23)c(OC)c1
3. CS(=O)(=O)N(CCc1ccccc1)CC1CCN(C(=O)CCl)CC1

1. 20.6
2. 17.9
3. 26.1
